Cited source: ChEMBL document CHEMBL4130453

- System tested: hERG (KCNH2) (Homo sapiens, UniProt Q12809)
- Sequence (Q12809 whole entry): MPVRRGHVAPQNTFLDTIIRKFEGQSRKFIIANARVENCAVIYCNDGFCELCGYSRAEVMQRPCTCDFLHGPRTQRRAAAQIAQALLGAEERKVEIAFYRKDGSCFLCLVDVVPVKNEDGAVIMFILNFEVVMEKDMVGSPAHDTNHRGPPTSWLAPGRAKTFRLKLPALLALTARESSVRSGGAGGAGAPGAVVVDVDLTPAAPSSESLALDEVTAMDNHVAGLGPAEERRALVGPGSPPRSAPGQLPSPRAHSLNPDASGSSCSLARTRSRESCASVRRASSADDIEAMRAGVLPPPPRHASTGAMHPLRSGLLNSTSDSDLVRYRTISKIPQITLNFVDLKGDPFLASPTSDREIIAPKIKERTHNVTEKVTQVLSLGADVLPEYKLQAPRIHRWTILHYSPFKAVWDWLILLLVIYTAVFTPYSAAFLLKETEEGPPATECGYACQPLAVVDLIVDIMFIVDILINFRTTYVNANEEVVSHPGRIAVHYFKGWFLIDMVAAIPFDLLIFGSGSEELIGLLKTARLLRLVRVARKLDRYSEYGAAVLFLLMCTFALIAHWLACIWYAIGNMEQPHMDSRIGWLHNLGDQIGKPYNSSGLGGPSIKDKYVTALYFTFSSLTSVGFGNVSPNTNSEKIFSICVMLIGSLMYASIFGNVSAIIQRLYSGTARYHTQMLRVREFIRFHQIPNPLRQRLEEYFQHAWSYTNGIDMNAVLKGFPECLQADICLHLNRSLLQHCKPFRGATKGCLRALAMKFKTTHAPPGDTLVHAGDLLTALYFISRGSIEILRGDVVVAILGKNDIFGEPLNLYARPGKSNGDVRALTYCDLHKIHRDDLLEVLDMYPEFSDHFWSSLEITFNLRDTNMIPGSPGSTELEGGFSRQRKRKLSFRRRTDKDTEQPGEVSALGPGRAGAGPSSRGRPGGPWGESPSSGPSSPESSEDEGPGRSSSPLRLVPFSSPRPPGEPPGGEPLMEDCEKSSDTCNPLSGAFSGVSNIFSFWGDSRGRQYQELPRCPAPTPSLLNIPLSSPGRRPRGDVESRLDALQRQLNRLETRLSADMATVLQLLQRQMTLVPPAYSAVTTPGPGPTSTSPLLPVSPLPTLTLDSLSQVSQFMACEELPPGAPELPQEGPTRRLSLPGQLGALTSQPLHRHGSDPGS
- Assay info: Inhibition of human ERG at 30 uM by patch express assay relative to control
Experimental endpoint: inhibition at 30 µM (%)
The answer is to be given in %; state only the numeric part.

Prompt: Using the record for "O=C(O)CCc1cc(F)c(OCc2c(-c3ccc(Cl)cc3F)nsc2C(F)(F)F)c(F)c1" , state its measured inhibition at 30 µM.
Completion: 12.5

---

- Assay info: Protein binding in human plasma
- Assay type: ADME, cell-free
- Assay conditions: read-out: PPB (converted)
Experimental endpoint: fraction unbound
Give the figure only, with no unit attached.

Prompt: Using the record for "O=C(O)CCc1cc(F)c(OCc2c(-c3ccc(Cl)cc3F)nsc2C(F)(F)F)c(F)c1" , state its measured fraction unbound.
Completion: 0.0013
